# System: CAKI-1 renal
# test_details: NCI-60 one-dose screen, 48 h (100 = growth as untreated, 0 = no growth, -100 = all killed)
# applied_conditions: 10 µM unless noted
# Experimental: Growth inhibition of the CAKI-1 human tumor cell line is measured as a screen for anti-cancer activity. Cells are grown in 96 well plates and exposed to the test compound for 48 hours. Compounds are tested at a single concentration, which is 10^-5 M for most compounds. The reported endpoint is percent growth (GI% or GIPRCNT), where numbers from 0 - 100% represent growth inhibition, and numbers from -100% - 0 represent cell death. For example, a value of 40 represents 60% growth inhibition. […]
Compounds without any hit were thinned out: in the full panel of roughly 83,000, 20% have a hit.
Lab note: anything with growth at or over 70% counts as 1; the rest go in 0.

Query block: Hi, just wondering whether O=C1Nc2ccc(F)cc2C12Nc1cc(Cl)ccc1S2 (centres undefined) shows growth of 70% or higher.
Result block: 0

Query block: Hi, just wondering whether O=C1CC(N2C(=O)/C(=C/C(Cl)=C\c3ccc([N+](=O)[O-])cc3)SC2=S)C(=O)N1c1ccc(O)cc1 (centres undefined) shows growth of 70% or higher.
Result block: 0
